- System: Canis familiaris
- TEST METHOD NOTES: Hemodynamic activity in anesthetized dog as percent change from baseline (2271 mmHg/s) in left ventricular myocardial activity at 1 mg/kg administered intravenously
- Format: functional, Canis lupus familiaris, Heart left ventricle
- COND: route intravenous
For each of the compounds below, state its Change.
Record the value in %, omitting the unit from your answer.

Look up Change with Canis familiaris for this compound: Nc1cc(-c2ccncc2)c[nH]c1=O 85

Look up Change with Canis familiaris for this compound: CSc1ccc(C(=O)c2[nH]c(=O)[nH]c2C)cc1 83

Look up Change with Canis familiaris for this compound: Cc1[nH]c(=O)c(C#N)cc1-c1ccncc1 149

Look up Change with Canis familiaris for this compound: O=C1CCC(c2ccc(-n3ccnc3)cc2)=NN1 147

Look up Change with Canis familiaris for this compound: CCc1[nH]c(=O)[nH]c1C(=O)c1ccncc1 144

----------
For each of the compounds below, state its Change.
- System: Canis familiaris
- TEST METHOD NOTES: Hemodynamic activity in anesthetized dog as percent change from baseline (2271 mmHg/s) in left ventricular myocardial activity at 0.3 mg/kg administered intravenously
- Format: functional, Canis lupus familiaris, Heart left ventricle
- COND: route intravenous
Record the value in %, omitting the unit from your answer.

Change lookup needed for O=C1CCC(c2ccc(-n3ccnc3)cc2)=NN1 , thanks. 127

Change lookup needed for CSc1ccc(C(=O)c2[nH]c(=O)[nH]c2C)cc1 , thanks. 47

Change lookup needed for Cc1[nH]c(=O)c(C#N)cc1-c1ccncc1 , thanks. 143

Change lookup needed for CCc1[nH]c(=O)[nH]c1C(=O)c1ccncc1 , thanks. 93

Change lookup needed for Nc1cc(-c2ccncc2)c[nH]c1=O , thanks. 32

----------
For each of the compounds below, state its Change.
- System: Canis familiaris
- TEST METHOD NOTES: Hemodynamic activity in anesthetized dog as percent change in left ventricular myocardial activity from baseline (2271 mmHg/s) at 0.03 mg/kg administered intravenously
- Format: functional, Canis lupus familiaris, Heart left ventricle
- COND: route intravenous
Quote the value and follow it with the unit of measurement.

Change lookup needed for Cc1[nH]c(=O)c(C#N)cc1-c1ccncc1 [MILRINONE] , thanks. 78%

Change lookup needed for CSc1ccc(C(=O)c2[nH]c(=O)[nH]c2C)cc1 [ENOXIMONE] , thanks. 7%

Change lookup needed for CC1CC(=O)NN=C1/C=C/c1ccc(-n2ccnc2)cc1.Cl (stereo unspecified) , thanks. 117%

Change lookup needed for CCc1[nH]c(=O)[nH]c1C(=O)c1ccncc1 [PIROXIMONE] , thanks. 16%

Change lookup needed for O=C1CCC(c2ccc(-n3ccnc3)cc2)=NN1 [IMAZODAN] , thanks. 37%

Change lookup needed for CC1CC(O)=NN=C1c1ccc(-n2ccnc2)cc1 (stereo unspecified) [CI-930] , thanks. 124%

----------
- TEST METHOD NOTES: Inhibition of phosphodiesterase 3 from guinea pig cardiac tissue at 1E-7-1E-4M or 1.0E-6 to 1E-3 M
- Set-up: species or system Cavia porcellus
For each of the molecules below, state its pIC50.
# pIC50 is unitless: minus log10 of the molar concentration; print number only

pIC50 lookup needed for CC1CC(=O)NN=C1/C=C/c1ccc(-n2cnc3c2CCCC3)cc1 (centres undefined) , thanks. 7.00

pIC50 lookup needed for CC1CC(=O)NN=C1c1ccc(-n2cnc3c2CCCC3)cc1 (centres undefined) [TETRAHYDROBENXIMIDAZOLE] , thanks. 6.82

pIC50 lookup needed for CC(=O)Nc1ccc(/C=C/C2=NNC(=O)CC2C)cc1 (centres undefined) , thanks. 5.55

pIC50 lookup needed for O=C1CCC(/C=C/c2ccc(-n3ccnc3)cc2)=NN1 , thanks. 5.96

The values you see were collected from ChEMBL document CHEMBL1124387.
